- Target of assay: Muscarinic acetylcholine receptor
- Assay info: Antagonist activity at mAChR in human CCRF-CEM cells assessed as inhibition of acetylcholine-induced calcium release preincubated for 25 mins followed by acetylcholine stimulation and measured for 90 secs by calcium flux assay
- Assay type: functional, cell-based
Property measured: IC50 (µM)
Numbers only, in µM.

For every listed record, write down its IC50.
1. CN1Cc2cccc(N3CCNCC3)c2C[C@@H]1CN(C)[C@H]1CCCc2cccnc21
2. Cc1cnc(CN(C)C[C@H]2Cc3c(cccc3N3CCNCC3)CN2)c(C)c1
3. COCCN(C[C@H]1Cc2c(cccc2N2CCNCC2)CN1)[C@H]1CCCc2cccnc21
4. CCCN(C[C@H]1Cc2c(cccc2N2CCNCC2)CN1)[C@H]1CCCc2cccnc21
5. CN(C[C@H]1Cc2c(cccc2N2CCN3CCC[C@@H]3C2)CN1)[C@H]1CCCc2cccnc21

Return:
1: 26.3; 2: 15.4; 3: 5.6; 4: 3.16; 5: 26.1
